test: Binding affinity to cereblon in human MDA-MB-231 cells assessed as reduction in cell growth inhibition measured after 4 days in presence of 30 uM of lenalidomide
Value Kind: pIC50
Scale for pIC50: -log10 of concentration given in mol/L; no unit attached.

So what's the measured pIC50 for this one? O=C1CCC(N2Cc3c(CCCCCNC(=O)[C@@H]4NC5(CCCCC5)[C@@]5(C(=O)Nc6cc(Cl)ccc65)[C@H]4c4cccc(Cl)c4F)cccc3C2=O)C(=O)N1 (stereo partly specified)
5.86

====

test: Binding affinity to cereblon in human RV4:11/IRMI-2 cells harboring p53 hotspot mutation Y236H/R249G assessed as reduction in cell growth inhibition measured after 4 days in presence of 10 uM lenalidomide
Value Kind: IC50 (nM)
Write the answer as a number in nM, unit excluded.

So what's the measured IC50 for this one? O=C1CCC(N2Cc3c(CCCCCNC(=O)[C@@H]4NC5(CCCCC5)[C@@]5(C(=O)Nc6cc(Cl)ccc65)[C@H]4c4cccc(Cl)c4F)cccc3C2=O)C(=O)N1 (stereo partly specified)
168
